Assay: Kinetic solubility of the compound by RP-HPLC analysis
Endpoint: kinetic solubility (mM)

- H-RWVKRRDYRFDMGFDYWVWE-OH: 21.9

----------
Assay: Octanol/buffer partition coefficient, logD of the compound at pH 7.4 incubated for 24 hrs by shake flask method based UV analysis
Format: physicochemical
logD at 24 h strictly less than 0.3 = label 1. Otherwise label 0.

* H-RWVARRDYRFDMGFDYWVWE-OH | label 1
* H-RWVWRDYRGDMGFDWVWE-OH | label 0
* H-RWVWRDLDIATTRDYWVWE-OH | label 0
* H-RWVVRRDYRGDMGFDYWVWE-OH | label 1
* H-RWVAREGGWFGELAFNYWVWE-OH | label 1
* H-RGVARRDYRGDPGFDYWHWE-OH | label 1
* H-RWVARRDYRGDMGFDYWVWE-OH | label 0
* H-RWVARAYGNYWYIDVWHWE-OH | label 0
* H-RWVARRDYRFDMGFNYWVWE-OH | label 0
* H-RWVARRDYRGDMGFDYWHWE-OH | label 0
* H-RWVKRRDYRFDMGFDYWVWE-OH | label 1
* H-RWVARAYGNYGYIDVWHWE-OH | label 1
* H-RWVAREGMNTDWYFDYWHWE-OH | label 0
* H-RWVKRRDYRGDMGFDYWVWE-OH | label 1
* H-RWVARRDYRFDMGFDYWHWE-OH | label 1
* H-RWVARRDYRGDMGFNYWVWE-OH | label 1
* H-RWVVRRDYRFDMGFDYWVWE-OH | label 1
* H-RWVWSPDSSGVAYWVWE-OH | label 0
* H-RWVWRDYRFDMGFDWVWE-OH | label 1

Source listed as ChEMBL document CHEMBL5257058.
